Documented [Azole]0.5 across a set of molecules
Molecular target: ScErg11p6×His (S. cerevisiae lanosterol 14α-demethylase) (Saccharomyces cerevisiae, UniProt P10614)
Construct: Crystal structures of the full length S. cerevisiae lanosterol 14α-demethylase (ScErg11p6×His); 6×His (hexahistidine); made in house; host or cells: Saccharomyces cerevisiae (AD3Δ overexpression strain, native ERG11 deleted)
Sequence (P10614 whole entry): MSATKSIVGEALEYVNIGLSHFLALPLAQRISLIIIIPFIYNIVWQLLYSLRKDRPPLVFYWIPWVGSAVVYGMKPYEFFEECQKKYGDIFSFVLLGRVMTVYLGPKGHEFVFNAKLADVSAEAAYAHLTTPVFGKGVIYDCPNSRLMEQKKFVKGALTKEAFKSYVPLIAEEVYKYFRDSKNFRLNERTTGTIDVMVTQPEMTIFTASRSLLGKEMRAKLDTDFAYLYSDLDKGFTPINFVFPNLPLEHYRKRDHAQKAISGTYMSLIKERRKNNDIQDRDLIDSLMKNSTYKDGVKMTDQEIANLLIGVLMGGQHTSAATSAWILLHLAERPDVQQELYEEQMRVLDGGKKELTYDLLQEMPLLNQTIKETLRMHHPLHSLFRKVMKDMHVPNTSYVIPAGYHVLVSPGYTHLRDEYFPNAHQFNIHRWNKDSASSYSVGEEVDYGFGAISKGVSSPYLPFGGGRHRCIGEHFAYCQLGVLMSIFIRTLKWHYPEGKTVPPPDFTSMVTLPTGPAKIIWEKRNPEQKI
Experiment: Type II binding (difference spectra) to affinity purified ScErg11p6×His
Settings: azole concentration giving half ΔAmax; 1 µM ScErg11p6×His
Give a bare numeral; the unit µM is implied.

# input # return recorded [Azole]0.5 for input "CC(C)(C)[C@@](O)(CCc1ccc(Cl)cc1)Cn1cncn1"
# output 0.33

# input Output [Azole]0.5 of "CCCN(CCOc1c(Cl)cc(Cl)cc1Cl)C(=O)n1ccnc1"
# output 0.30

# input Using known records, supply [Azole]0.5 for "O[C@](Cc1ccccc1Cl)(Cn1cncn1)C1(Cl)CC1"
# output 0.33

# input Consider the molecule "O[C@@](Cc1ccccc1Cl)(Cn1cncn1)C1(Cl)CC1" and give its recorded [Azole]0.5.
# output 0.42

# input Provide [Azole]0.5 value for the following molecule: "O=c1c2cc(F)ccc2nc(-n2cncn2)n1-c1ccc(Cl)cc1Cl"
# output 0.31

# input Report [Azole]0.5 for "CC(C)(C)[C@](O)(CCc1ccc(Cl)cc1)Cn1cncn1"
# output 0.30

====

Overview of recorded pKd for various molecules
Molecular target: ScErg11p6×His (S. cerevisiae lanosterol 14α-demethylase) (Saccharomyces cerevisiae, UniProt P10614)
Construct: Crystal structures of the full length S. cerevisiae lanosterol 14α-demethylase (ScErg11p6×His); 6×His (hexahistidine)
Assay: Type II binding (difference spectra) to affinity purified ScErg11p6×His
Hey, just a heads up that pKd is the negative log base 10 of the concentration in molar.

Some molecules with recorded pKd:
CCCN(CCOc1c(Cl)cc(Cl)cc1Cl)C(=O)n1ccnc1 ... 7.57
CC(C)(C)[C@@](O)(CCc1ccc(Cl)cc1)Cn1cncn1 ... 6.94
CC(C)(C)[C@](O)(CCc1ccc(Cl)cc1)Cn1cncn1 ... 7.19
O=c1c2cc(F)ccc2nc(-n2cncn2)n1-c1ccc(Cl)cc1Cl ... 7.82
O[C@](Cc1ccccc1Cl)(Cn1cncn1)C1(Cl)CC1 ... 7.27

Now examine the next entry.
# input State its pKd: "O[C@@](Cc1ccccc1Cl)(Cn1cncn1)C1(Cl)CC1"
# output 6.99

====

Tested on: S. cerevisiae AD3Δ overexpressing ScErg11p6×His wild type, native ERG11 deleted
Assay: MIC50 broth microdilution, AD3Δ strain overexpressing wild type ScErg11p6×His
Assay type: cell-based, Saccharomyces cerevisiae
Details: Saccharomyces cerevisiae
Listing: log10 MIC50 of selected molecules
Parameter value (number): base-10 log of MIC50 in µM.

O=c1c2cc(F)ccc2nc(-n2cncn2)n1-c1ccc(Cl)cc1Cl ... -0.40
CC(C)(C)[C@](O)(CCc1ccc(Cl)cc1)Cn1cncn1 ... 0.04
O[C@@](Cc1ccccc1Cl)(Cn1cncn1)C1(Cl)CC1 ... -1.80
CCCN(CCOc1c(Cl)cc(Cl)cc1Cl)C(=O)n1ccnc1 ... 0.28
CC1COC(Cn2cncn2)(c2ccc(Oc3ccc(Cl)cc3)cc2Cl)O1 (stereo not shown) ... -1.33
CC(C)(C)[C@@](O)(CCc1ccc(Cl)cc1)Cn1cncn1 ... -1.14

# input Given "O[C@](Cc1ccccc1Cl)(Cn1cncn1)C1(Cl)CC1" , respond with its log10 MIC50.
# output 0.51

====

System: S. cerevisiae AD3Δ overexpressing ScErg11p6×His Y140H, native ERG11 deleted
Test: MIC50 broth microdilution, strain overexpressing ScErg11p6×His Y140H
Assay type: cell-based, Saccharomyces cerevisiae
Settings: Y140H, ScErg11p6×His Y140H overexpressed from PDR5 locus, native ERG11 deleted; mean ± standard error
Protocol: The susceptibility to azole compounds of S. cerevisiae AD3Δ strains overexpressing Erg11p6×His wild type and Y140F/H, but with the native ERG11 deleted, as well as the host strain (AD2Δ) which retained the wild type ERG11 (S2 Table), were measured as MIC50 values (Table 1). […] The susceptibilities of strains overexpressing wild type ScErg11p6×His and ScErg11p6×His Y140F/H to CYP51 inhibitors were measured as MIC50 values using broth microdilution assays as described previously.[21] […]
Reported property: MIC50 (µM)
Answer with a number only, understood to be in µM.

# input Please respond with reported MIC50 (system S. cerevisiae AD3Δ overexpressing ScErg11p6×His Y140H, native ERG11 deleted) for OC(Cc1ccccc1Cl)(Cn1nc[nH]c1=S)C1(Cl)CC1 (stereo not shown) [S-Prothioconazole, S-prothioconazole] .
# output 1.2

# input Enter measured MIC50, system S. cerevisiae AD3Δ overexpressing ScErg11p6×His Y140H, native ERG11 deleted, for the molecule shown: O=c1[nH]cnn1CC(O)(Cc1ccccc1Cl)C1(Cl)CC1 (stereo not shown) [S-Oxo-prothioconazole, S-oxo-prothioconazole]
# output 97

# input Provide the reported MIC50 (system: S. cerevisiae AD3Δ overexpressing ScErg11p6×His Y140H, native ERG11 deleted) for OC(Cc1ccccc1Cl)(Cn1nc[nH]c1=S)C1(Cl)CC1 (stereo not shown) [R-Prothioconazole, R-prothioconazole]
# output 31

# input Give S. cerevisiae AD3Δ overexpressing ScErg11p6×His Y140H, native ERG11 deleted MIC50 for the following molecule: O=c1[nH]cnn1CC(O)(Cc1ccccc1Cl)C1(Cl)CC1 (stereo not shown) [R-Oxo-prothioconazole, R-oxo-prothioconazole]
# output 95
